SYSTEM_UNDER_TEST: CDK2/Cyclin E complex (Homo sapiens, UniProt P24941)
TEST_SUMMARY: CDK2/Cyclin E fluorescence-based microfluidic mobility shift assay (CDK2 Biochemical Caliper Assay)
ASSAY_CONTEXT: read-out: Biochemical CDK2/CyclinE Caliper IC50
QUANTITY_NAME: IC50

- COCc1cc(C(=O)Nc2cc([C@@H]3CC[C@H](Oc4cncnc4C)C3)[nH]n2)n(C)n1 (single isomer, unassigned) [Example 491]: 1000 to 100000 nM
- Cc1cc(Nc2cc(C3CCCC3)[nH]n2)n2nc(C)cc2n1 [Example 802]: 1000 to 100000 nM
- Cc1cc(C(F)(F)F)c(Nc2cc(C3CCCC3)[nH]n2)nn1 [Example 855]: 1000 to 100000 nM
- COCc1cc(C(=O)Nc2cc([C@H]3CC[C@@H](Oc4ccc(C)nc4)C3)[nH]n2)n(C)n1 (single isomer, unassigned) [Example 395]: 1000 to 100000 nM
- Cc1cc(CC(=O)Nc2cc([C@@H]3CC[C@H](Oc4nscc4C4CC4)C3)[nH]n2)on1 (single isomer, unassigned) [Example 128]: ≤ 100 nM

Field: next compound
Query string: Consider the compound CC(=O)Nc1cc([C@@H]2CC[C@H](Oc3nscc3C3CC3)C2)[nH]n1 (single isomer, unassigned) [Example 422] and give its measured IC50.
Result string: ≤ 100 nM

----------
pIC50 for assorted molecules
SYSTEM_UNDER_TEST: CDK2/Cyclin E complex (Homo sapiens, UniProt P24941)
TEST_SUMMARY: CDK2/Cyclin E fluorescence-based microfluidic mobility shift assay (CDK2 Biochemical Caliper Assay)
ASSAY_CONTEXT: read-out: Biochemical CDK2/CyclinE Caliper IC50
pIC50: −log10 of the molar value.

• Cc1cc(CC(=O)Nc2cc([C@H]3CC[C@@H](OC(=O)[C@@H](N)C(C)C)C3)[nH]n2)on1 (single isomer, unassigned) [Example 468] = 6.60 to 7.00

Query string: Consider the molecule COCc1cc(C(=O)Nc2cc([C@@H]3CC[C@H](Oc4nnccc4-c4ccccc4)C3)[nH]n2)n(C)n1 (single isomer, unassigned) [Example 475] and give its measured pIC50.
Result string: ≥ 7.00

Query string: Entry to check: CC1(NC(=O)O[C@H]2CO[C@@H](c3cc(Nc4ccnc5nccn45)n[nH]3)C2)CC1 [Example 748]
Result string: ≥ 7.00

Query string: Entry to check: c1cn2nc(C3CC3)cc2c(Nc2cc(C3CCCC3)[nH]n2)n1 [Example 870]
Result string: 4.00 to 6.00

Query string: Entry to check: CC1(NC(=O)O[C@H]2CO[C@@H](c3cc(Nc4ccc5nccn5n4)n[nH]3)C2)CC1 [Example 732]
Result string: ≥ 7.00

Query string: Entry to check: Cc1cncc(Cl)c1Nc1cc(C2CCCC2)[nH]n1 [Example 799]
Result string: 4.00 to 6.00

Query string: Entry to check: CC(C)NC(=O)OC[C@H]1C[C@@H](c2cc(NC(=O)c3cc(COC(F)F)nn3C)n[nH]2)C1 [Example 650]
Result string: ≥ 7.00

Query string: Entry to check: CC(C)c1ccnnc1OC[C@H]1C[C@@H](c2cc(Nc3nccc4ncsc34)n[nH]2)C1 [Example 438]
Result string: ≥ 7.00
